Tested on: TbAT1-KO: T. brucei cell line lacking the TbAT1(P2) transporter gene
assay-procedure: microbe, parasite or virus in culture
Format: cell-based, Trypanosoma brucei brucei
experimental-context: Trypanosoma brucei, read-out: TbAT1-KO EC50, single determinations, source data
Please go through the items and note down their pEC50.
Interpret pEC50 as the negative base-10 log of the concentration measured in mol/L.

pEC50 for Nc1ncnc2c1ccn2[C@H]1C[C@H](O)[C@@H](CO)O1 [Compound 11, 2′-Deoxy-TUB] ?
4.38

Which pEC50 reading was recorded for the molecule Nc1ncnc2c1c(Br)cn2[C@H]1C[C@H](O)[C@@H](CO)O1 [Compound 12, 7-Br-2′-deoxy-TUB] ?
6.03

What value of measured pEC50 is listed for Nc1ncnc2c1c(Br)cn2[C@@H]1O[C@H](CO)[C@@H](O)[C@H]1O [Compound 8, 7-bromotubercidin] ?
6.09

Entry under review: Nc1ncnc2c1ccn2[C@@H]1O[C@H](CO)C[C@H]1O [Compound 9, 3’-deoxytubercidin] . Reported pEC50?
6.43

May I ask what pEC50 has been recorded for Nc1ncnc2c1ccn2[C@@H]1O[C@H](CO)[C@@H](O)[C@H]1O [Compound 6, Tubercidin, reference compound] ?
5.49
